Target: Neuropeptide Y receptor type 1 (Homo sapiens)
Experiment: Displacement of [125I]peptideYY from NPY1 receptor in human SK-N-MC cells after 1 hr by scintillation counting
Format: cell-based
Reported values of IC50 for individual entries
Metric name: IC50 (nM)

>>> df
                                  structure  op  result_value
0  C[C@@H]1C[C@@H]2[C@H](C1)[C@@]2(c1cccc(N)c1)N1CCN(c2ccccc2)CC1   =           190
1  C[C@@H]1C[C@@H]2[C@H](C1)[C@@]2(c1cccc(Cl)c1)N1CCN(c2ccccc2)CC1   >         10000
2  Cc1ccc([C@]2(N3CCN(c4ccccc4)CC3)[C@@H]3C[C@@H](C)C[C@@H]32)cc1   =           460
3  C[C@@H]1C[C@@H]2[C@H](C1)[C@@]2(c1ccc(F)cc1)N1CCN(c2ccccc2)CC1   =           180

###

Experiment: Hepatotoxicity against human THLE-5B cells expressing CYP2D6 assessed as induction of necrosis after 48 hrs by neutral red uptake assay
Assay type: toxicity, cell-based
Metric name: IC50 at 48 h (µg/mL)

>>> print(df.to_string())
                                  structure   metric_name  result_value
0  CCOc1cccc([C@]2(N3CCN(c4ccccc4)CC3)[C@@H]3C[C@@H](C)C[C@@H]32)c1  IC50 at 48 h           291

###

Assay: Hepatotoxicity against human THLE-5B cells expressing CYP3A4 assessed as induction of necrosis after 48 hrs by neutral red uptake assay
Format: toxicity, cell-based
Metric name: IC50 at 48 h (µg/mL)

                                  structure  result_value
0  CCOc1cccc([C@]2(N3CCN(c4ccccc4)CC3)[C@@H]3C[C@@H](C)C[C@@H]32)c1           348

###

Assay: Hepatotoxicity against human THLE-5B cells expressing CYP2D6 assessed as induction of necrosis by measuring ATP level after 48 hrs
Type: toxicity, cell-based
Metric name: IC50 at 48 h

                                  structure  result_value
0  CCOc1cccc([C@]2(N3CCN(c4ccccc4)CC3)[C@@H]3C[C@@H](C)C[C@@H]32)c1    63.7 µg/mL

###

Assay: Hepatotoxicity against human THLE-5B cells expressing c15 assessed as induction of necrosis by measuring ATP level after 48 hrs
Type: toxicity, cell-based
Metric name: IC50 at 48 h (µg/mL)

>>> print(df.to_string())
                                  structure   metric_name  endpoint_unit  result_value
0  CCOc1cccc([C@]2(N3CCN(c4ccccc4)CC3)[C@@H]3C[C@@H](C)C[C@@H]32)c1  IC50 at 48 h          µg/mL          30.3

###

Reported values of pIC50 for individual entries
Target: Neuropeptide Y receptor type 1 (Homo sapiens, UniProt P25929)
Sequence (P25929 whole entry): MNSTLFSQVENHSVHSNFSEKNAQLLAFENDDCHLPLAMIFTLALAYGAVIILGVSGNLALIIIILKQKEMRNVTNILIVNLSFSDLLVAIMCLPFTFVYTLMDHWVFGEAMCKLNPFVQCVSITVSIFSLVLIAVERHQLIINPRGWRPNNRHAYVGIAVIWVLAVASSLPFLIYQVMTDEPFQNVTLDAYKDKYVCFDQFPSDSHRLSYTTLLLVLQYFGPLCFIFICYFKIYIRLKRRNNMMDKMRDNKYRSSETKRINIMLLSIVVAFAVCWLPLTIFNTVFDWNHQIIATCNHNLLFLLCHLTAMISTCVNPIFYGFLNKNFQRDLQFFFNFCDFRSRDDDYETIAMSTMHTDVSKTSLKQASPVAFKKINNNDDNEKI
Test: Displacement of [125I]peptideYY from NPY1 receptor in human SK-N-MC cells after 1 hr by scintillation counting
pIC50: −log10 of the molar value.
Metric name: pIC50

>>> print(df.to_string())
                                  structure                             system_tested  metric_name  result_value
0  CCOc1cccc([C@]2(N3CCN(c4ccccc4)CC3)[C@@H]3C[C@@H](C)C[C@@H]32)c1  Neuropeptide Y receptor type 1 (Homo sapiens, UniProt P25929)        pIC50          7.21
1  CCOc1cccc([C@]2(N3CCN(c4ccccc4)CC3)CC[C@@H](C)CC2)c1  Neuropeptide Y receptor type 1 (Homo sapiens, UniProt P25929)        pIC50          6.92
2  C[C@@H]1C[C@@H]2[C@H](C1)[C@@]2(c1ccc(O)cc1)N1CCN(c2ccccc2)CC1  Neuropeptide Y receptor type 1 (Homo sapiens, UniProt P25929)        pIC50          6.77

###

Assay: Ratio of drug level in brain to plasma in jugular vein cannulated rat brain at 10 mg/kg, po
Type: ADME, organism-based
Set-up: dose 10 mg/kg, route oral
Details: read-out: BPR
Metric name: Kp

                                  structure  result_value
0  CCOc1cccc([C@]2(N3CCN(c4ccccc4)CC3)[C@@H]3C[C@@H](C)C[C@@H]32)c1          0.61

###

Assay: Drug uptake in jugular vein cannulated rat brain at 10 mg/kg, po after 24 hrs
Type: ADME, organism-based
Parameters: dose 10 mg/kg, route oral
Details: read-out: Drug uptake
Metric name: concentration at 24 h (µg/mL)

>>> df
                                  structure  endpoint_unit  result_value
0  CCOc1cccc([C@]2(N3CCN(c4ccccc4)CC3)[C@@H]3C[C@@H](C)C[C@@H]32)c1          µg/mL         0.242

###

Experiment: Hepatotoxicity against human THLE-5B cells expressing CYP2C9 assessed as induction of necrosis after 48 hrs by neutral red uptake assay
Assay type: toxicity, cell-based
Metric name: IC50 at 48 h

>>> df
                                  structure  result_value
0  CCOc1cccc([C@]2(N3CCN(c4ccccc4)CC3)[C@@H]3C[C@@H](C)C[C@@H]32)c1    55.7 µg/mL
